Tested on: KM12 colon
Experiment: NCI-60 one-dose screen, 48 h
Settings: 10 µM unless noted
Method: Growth inhibition of the KM12 human tumor cell line is measured as a screen for anti-cancer activity. Cells are grown in 96 well plates and exposed to the test compound for 48 hours. Compounds are tested at a single concentration, which is 10^-5 M for most compounds. The reported endpoint is percent growth (GI% or GIPRCNT), where numbers from 0 - 100% represent growth inhibition, and numbers from -100% - 0 represent cell death. For example, a value of 40 represents 60% growth inhibition. […]
This is part of a sample that, as a whole, favours compounds with a hit. Of some 83,000 tested, about 20% had one in any assay. Active and inactive are the calls of the source. Rule for the calls: active = growth percent below 10; inactive = the rest.
The reply should be one of these categories: Y (active), N (inactive)

Tell me the assay call for COc1cc(C(=O)NNC(=O)c2ccc(NC(=O)CCl)cc2)cc(OC)c1OC please.
N

Tell me the assay call for CO[C@@H](C)Cn1c(=O)n(C)c2cnc3ccc(-c4cncc(C(C)(C)O)c4)cc3c21 please.
Y

Tell me the assay call for O=C(/C=C/c1ccc2c(c1)OCO2)c1c(O)c2ccccc2oc1=O please.
N

Tell me the assay call for O=C(Cc1ccc(/C=C/C(=O)c2ncc[nH]2)cc1)Nc1ccc(S(F)(F)(F)(F)F)cc1 please.
Y

Tell me the assay call for N#CCNC(=O)c1ccc(-c2ccnc(Nc3ccc(N4CCOCC4)cc3)n2)cc1 please.
N

Tell me the assay call for COc1ccc(F)c(F)c1C(=O)c1cnc(NC2CCN(S(C)(=O)=O)CC2)nc1N please.
Y

Tell me the assay call for CCNCCNc1cc(-c2ccc(Cl)c(Cl)c2)c(C#N)c2nc3ccccc3n12 please.
Y

Tell me the assay call for COc1ccc(S(=O)(=O)N(C(C)=O)c2ccccc2/C=C/c2cc[n+]([O-])cc2)cc1 please.
N

Tell me the assay call for CC[n+]1c(/C=C/C=C2\N(C)c3ccccc3C2(C)C)sc2ccccc21 please.
Y

Tell me the assay call for COc1ccc(-c2ccc3ncc4c(c3c2)n(-c2ccc(N3CCNCC3)c(C(F)(F)F)c2)c(=O)n4C)cn1 please.
Y

Tell me the assay call for Nc1cc(C(F)(F)F)c(-c2cc(N3CCOCC3)nc(N3CCOCC3)n2)cn1 please.
Y

Tell me the assay call for COc1cccc(Nc2ncnn3ccc(CN4CC[C@@H](N)[C@H](O)C4)c23)c1 please.
N

Tell me the assay call for O=C(CNc1nc(-c2ccc(Cl)cc2)cs1)Nc1ccc(-c2nc3ccccc3s2)cc1 please.
N

Tell me the assay call for CN(c1ncccc1CNc1nc(Nc2ccc3c(c2)CC(=O)N3)ncc1C(F)(F)F)S(C)(=O)=O please.
Y

Tell me the assay call for N#Cc1c(-c2ccc(C(F)(F)F)cc2)c(F)c(NCCC2CCC(O)C2)n2c1nc1ccccc12 (stereo unspecified) please.
N

Tell me the assay call for Cc1c(CN2CCN(C(=O)[C@H](C)O)CC2)sc2c(N3CCOCC3)nc(-c3cnc(N)nc3)nc12 please.
Y

* * *

System: U251 CNS
Experiment: NCI-60 one-dose screen, 48 h
Conditions: 10 µM unless noted
This is part of a sample that, as a whole, favours compounds with a hit. Of some 83,000 tested, about 20% had one in any assay. Calls of active or inactive are those of the source. How the source made its calls: active means growth percent below 10; inactive means the rest.
The reply should be one of these categories: YES (active), NO (inactive)

Tell me the assay call for Cc1cc(C(O)CN(C)C)cc2c1ccc1cc(C(C)C)ccc12 (stereo not drawn) please.
YES

Tell me the assay call for O=C1NC(=O)/C(=C/c2ccc3nccc(-c4ccncc4)c3c2)S1 please.
YES

Tell me the assay call for Nc1cc2c(cc1Br)-c1c(C(=O)O)cccc1C2O (stereo not drawn) please.
NO

Tell me the assay call for C=CC(=O)N1CCC(Oc2cc3c(Nc4ccc(Cl)c(Cl)c4F)ncnc3cc2OC)CC1 please.
NO

Tell me the assay call for CCCCOc1nc2cc(Cl)ccc2cc1/C=C/c1cc(/C=C/c2cc3ccc(Cl)cc3nc2OCCCC)n(-c2ccccc2)n1 please.
NO

Tell me the assay call for COc1cc(F)c(F)c(Nc2ccc(I)cc2F)c1NS(=O)(=O)C1(C[C@H](O)CO)CC1 please.
NO

Tell me the assay call for C=CCN1C(=O)c2cccc3c(-c4ccc5c(c4)ncn5C4CCCCC4)ccc(c23)C1=O please.
NO

Tell me the assay call for Cc1cc(N2CCCC2)nc(N(CCCNc2ccnc3cc(Cl)ccc23)Cc2ccc3c(c2)OCO3)n1 please.
YES

Tell me the assay call for CC12O[C@H](C[C@@H](OC(=O)CCC(=O)O)[C@H]1O)n1c3ccccc3c3c4c(c5c6ccccc6n2c5c31)C(=O)NC4=O please.
NO

Tell me the assay call for COc1cnc2c(c1)C(=O)c1c-2n(CCCN2CCOCC2)c(=O)c2cc(Cl)ccc12 please.
YES

Tell me the assay call for N#CCNC(=O)c1ccc(-c2ccnc(Nc3ccc(N4CCOCC4)cc3)n2)cc1 please.
NO

Tell me the assay call for C=C1[C@@H](O)C[C@H]2C(C)(C)C[C@H](Cl)C[C@]2(C)[C@H]1C[C@H](O)[C@H]1CC(=O)NC1=O please.
YES

Tell me the assay call for CC(C)(C)OC(=O)N1CCC(O)[C@@H](O[Si](c2ccccc2)(c2ccccc2)C(C)(C)C)[C@H]1/C=C/c1ccccc1 (stereo partly drawn) please.
NO

Tell me the assay call for O=C1CC(c2ccc(Cl)cc2)c2ncn(-c3cccc(Cl)c3)c2N1 (stereo not drawn) please.
NO

Tell me the assay call for Cn1ccnc1C(=O)/C=C/c1ccc(CC(=O)Nc2ccc(S(F)(F)(F)(F)F)cc2)cc1 please.
YES

Tell me the assay call for Cc1sc2c(c1C)c(=O)nc1c(-c3nc(-c4ccccc4)cs3)n[nH]n12 please.
NO

Tell me the assay call for CNC(=O)c1ccc(Nc2ncc(C(F)(F)F)c(NCc3nccnc3N(C)S(C)(=O)=O)n2)cc1 please.
YES

Tell me the assay call for COC(=O)[C@H](Cc1ccccc1)NC(=O)[C@@H](OC)[C@@H]1Cc2cc3cc(OC4CC(OC5CC(O)C(O)C(C)O5)C(O)C(C)O4)c(C)c(O)c3c(O)c2C(=O)[C@H]1OC1CC(OC2CC(OC3CC(C)(O)C(O)C(C)O3)C(O)C(C)O2)C(O)C(C)O1 (stereo partly drawn) please.
YES

Tell me the assay call for Cc1nc2cc(-c3nn(C(C)C)c4ncnc(N)c34)ccc2o1 please.
YES

Tell me the assay call for CO[C@@H](C(=O)N1Cc2[nH]nc(NC(=O)c3ccc(N4CCN(C)CC4)cc3)c2C1)c1ccccc1 please.
NO

Tell me the assay call for N#CC(C#N)=NO please.
NO

Tell me the assay call for COc1ccc(Cc2cc(-c3ccccc3C)n[nH]c2=O)cc1 please.
NO

Tell me the assay call for O=C(/C=C/c1ccc2c(c1)OCO2)c1c(O)c2ccccc2oc1=O please.
NO

Tell me the assay call for Cc1cc(NCC(=O)Nc2ccc(-c3nc4ccccc4s3)cc2)no1 please.
NO

Tell me the assay call for OCCNC(=S)Nc1ccc(-c2nc(N3C[C@H]4CC[C@@H](C3)O4)c3cccn3n2)cc1 please.
YES

Tell me the assay call for C[C@H]1Oc2cc(cnc2N)-c2c(nn(C)c2C#N)CN(C)C(=O)c2ccc(F)cc21 please.
NO

Tell me the assay call for O=C1NC(=O)C(c2cnc3ccccn23)=C1c1cn2c3c(cc(F)cc13)CN(C(=O)N1CCCCC1)CC2 please.
NO

Tell me the assay call for CCCS(=O)(=O)Nc1ccc(F)c(C(=O)c2c[nH]c3ncc(-c4ccc(Cl)cc4)cc23)c1F please.
NO
